These measurements were taken from paper PMC4552634.

system: P. falciparum stage V gametocytes; set-up: BacTiter-Glo ATP luminescence viability of purified stage V gametocytes in 384-well plates, per cent inhibition versus DMSO; conditions: 48 h, 5 µM; inhibitor
Out of some 13,000 compounds screened, about 3,200 (25%) showed an effect of 50% or more. Some of the results follow.
attributeMeasured: % Inhibition (%)
Numbers only, in %.

Record excerpt, results attached:
compound	systemUnderTest	% Inhibition / %
Cc1[nH]c(C)c(-c2ccc(OCCn3cnc(Cl)c3Cl)cc2)c(=O)c1Br [TCMDC-134570]	P. falciparum stage V gametocytes	-18.53
Nc1nccc(-c2ccc3c(-c4cccc(F)c4)cnc(N)c3c2)n1 [TCMDC-134545]	P. falciparum stage V gametocytes	-1.877
NOCCCOc1ccccc1 [TCMDC-123474]	P. falciparum stage V gametocytes	-11.28
N#Cc1ccc(-c2ccc(C(=O)NCCCCN3CCC(c4cn(CCO)c5ccccc45)CC3)cc2)cc1 [TCMDC-138836]	P. falciparum stage V gametocytes	-28.51
Cc1[nH]c(C)c(-c2ccc(OCCCCSc3ccncc3)cc2)c(=O)c1Br [TCMDC-135256]	P. falciparum stage V gametocytes	73.89

List the reported % Inhibition of each compound below.
1. CC(C)Cn1cc(C2CCN(CCN3CCC(CNC(=O)c4ccc(-c5ccc(C#N)cc5)cc4)CC3)CC2)c2ccccc21 [TCMDC-138849]
2. C=C(C)Cn1cc(C2CCN(CCN3CCC(CNC(=O)c4ccc(-c5ccc(C#N)cc5)cc4)CC3)CC2)c2ccccc21 [TCMDC-138854]
3. CN1CCN(c2cccc(-c3nnc(-c4ccc(OCC(=O)NCc5cccc(C(F)(F)F)c5)c([N+](=O)[O-])c4)o3)c2)CC1 [TCMDC-134941]
4. COc1cc(CN2CCC(NC(=O)[C@H](Cc3ccccc3)NC(=O)Nc3ccc(Oc4ccccc4)cc3)C2)ccc1O (stereo partly shown) [TCMDC-140500]
5. Cc1cccc(Cl)c1Nc1nnc(-c2cccc(C(=O)NC[C@@H]3CC[C@H]4C[C@@H]3C4(C)C)c2)o1 [TCMDC-135040]

1. 100.8
2. 103.5
3. -68.92
4. -15.62
5. -14.01

List the reported % Inhibition of each compound below.
1. Cc1ccc(CN2CCCCC(NC(=O)c3cc4ccccc4s3)C2)cc1 (stereo not shown) [TCMDC-141748]
2. CN1CCC(N(C)c2nccc(N3CCN(Cc4cncn4Cc4ccccc4)CC3)n2)CC1 [TCMDC-125095]
3. Cc1cccc2nc(-c3ccc(-c4cccc(C(=O)NCCc5cn(C)cn5)c4)s3)[nH]c12 [TCMDC-132498]
4. Cc1cccc2nc(-c3cccc(-c4cccc(NC(=O)Cc5ccc[n+]([O-])c5)c4)c3)[nH]c12 [TCMDC-136992]
5. N#Cc1ccc(-c2ccc(C(=O)NCCCCN3CCC(c4cn(CCCO)c5ccccc45)CC3)cc2)cc1 [TCMDC-138837]
6. O=C(Nc1ccc(Oc2ccccc2)cc1)N[C@@H](Cc1ccc(O)cc1)C(=O)NC1CCN(Cc2ccc(O)c([N+](=O)[O-])c2)C1 (stereo partly shown) [TCMDC-140421]

1. -37.31
2. -8.441
3. -19.19
4. 24.81
5. -51.57
6. 0.03751

* * *

What % Inhibition was measured for each of the following?
tested on: P. falciparum stage V gametocytes; set-up: BacTiter-Glo ATP luminescence viability of purified stage V gametocytes in 384-well plates, per cent inhibition versus DMSO; settings: 48 h, 5 µM; inhibitor
The whole screen tested about 13,000 compounds, of which about 3,200 (25%) showed an effect of 50% or more. The list shows a part of the results.
Numbers only, in %.

compound	attributeMeasured	numericReadout
COc1ccc2nccc(N3CCC(CCNCc4ccc5c(n4)NC(=O)CO5)CC3)c2c1.Cl [TCMDC-141904]	% Inhibition	-28.1

List the reported % Inhibition of each compound below.
1. O=C(Nc1cccc(Cl)c1Cl)N[C@H]1CCN(CCCCCNC(=O)C2CC2c2ccc(Cl)c(Cl)c2)C1 (some centres unmarked) [TCMDC-136267]
2. CCc1cc2c3c(N)nc(N)nc3ccc2n1C(C)CC (centres unmarked) [TCMDC-137308]
3. O=C(Nc1cc(Cl)cc(Cl)c1)N[C@H]1CCN(CCCCCNC(=O)C2CC2c2ccc(Cl)c(Cl)c2)C1 (some centres unmarked) [TCMDC-136273]
4. CCC(CC)n1c(COC)cc2c3c(N)nc(N)nc3ccc21 [TCMDC-137313]

1. -46.93
2. 10.89
3. 86.02
4. -40.93
